# measured.target: T1, soluble Homo sapiens CD131 comprising a C-terminal 6xHis tag (human, UniProt P32927 17-438)
# T1 construct: truncated after Ser438, C-terminal 6xHis; also called shCD131; shβc
# T1 sequence: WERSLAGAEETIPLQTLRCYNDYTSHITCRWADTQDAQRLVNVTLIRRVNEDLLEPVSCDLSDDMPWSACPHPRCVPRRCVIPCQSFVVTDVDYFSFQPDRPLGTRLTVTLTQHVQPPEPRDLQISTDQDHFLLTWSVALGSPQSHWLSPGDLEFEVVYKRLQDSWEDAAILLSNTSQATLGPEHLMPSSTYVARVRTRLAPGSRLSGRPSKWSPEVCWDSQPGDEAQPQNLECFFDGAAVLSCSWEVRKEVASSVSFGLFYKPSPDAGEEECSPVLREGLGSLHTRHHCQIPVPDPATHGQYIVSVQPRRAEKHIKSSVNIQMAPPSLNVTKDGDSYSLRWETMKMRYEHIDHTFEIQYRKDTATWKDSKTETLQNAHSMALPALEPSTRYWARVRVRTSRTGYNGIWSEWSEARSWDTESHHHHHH
# assay.summary: SPR, Fab over captured shCD131
measured.attribute: kon (M⁻¹ s⁻¹)
Give bare numbers, in M⁻¹ s⁻¹.

Check out these entries, answers already filled in.
binder	value.units	kon
9A2-VR24 Fab (Fab, V domains shown, recombinant Fab) VH: EVQLLESGGGLVQPGGSLRLSCAASGFTFPWYRVHWVRQAPGKGLEWVSSIRSSGGFTYYADSVKGRFTISRDNSKNTLYLQMNSLRAEDTAVYYCARFYDSFFDIWGQGTMVTVSS VL: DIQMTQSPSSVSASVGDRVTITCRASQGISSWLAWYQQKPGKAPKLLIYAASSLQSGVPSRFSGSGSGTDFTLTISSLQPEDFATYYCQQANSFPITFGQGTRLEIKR	M⁻¹ s⁻¹	2.3e+06
9A2-VR39.22 Fab (Fab, V domains shown, recombinant Fab) VH: EVQLLESGGGLVQPGGSLRLSCAASGFTFQWYHVIWVRQAPGKGLEWVSSINGRGRVTYYADSVKGRFTISRDNSKNTLYLQMNSLRAEDTAVYYCARFYDSFFDIWGQGTMVTVSS VL: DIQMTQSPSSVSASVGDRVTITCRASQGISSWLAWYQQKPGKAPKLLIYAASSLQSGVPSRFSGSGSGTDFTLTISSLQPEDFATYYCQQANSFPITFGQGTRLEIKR	M⁻¹ s⁻¹	3.13e+06
9A2-VR24.111 Fab (Fab, V domains shown, recombinant Fab) VH: EVQLLESGGGLVQPGGSLRLSCAASGFTFPWYRVHWVRQAPGKGLEWVSSIRSSGGFPMYNPHVKGRFTISRDNSKNTLYLQMNSLRAEDTAVYYCARFYDSFFDIWGQGTMVTVSS VL: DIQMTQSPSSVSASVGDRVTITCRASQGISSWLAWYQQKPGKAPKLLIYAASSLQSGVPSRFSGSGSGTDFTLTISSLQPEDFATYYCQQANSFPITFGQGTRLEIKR	M⁻¹ s⁻¹	2.7e+06
9A2-VR24.81 Fab (Fab, V domains shown, recombinant Fab) VH: EVQLLESGGGLVQPGGSLRLSCAASGFTFPWYRVHWVRQAPGKGLEWVSSIHTHRNYTYYADSVKGRFTISRDNSKNTLYLQMNSLRAEDTAVYYCARFYDSFFDIWGQGTMVTVSS VL: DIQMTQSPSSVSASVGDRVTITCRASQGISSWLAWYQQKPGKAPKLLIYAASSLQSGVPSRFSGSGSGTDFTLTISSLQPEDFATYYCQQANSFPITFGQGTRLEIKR	M⁻¹ s⁻¹	2.85e+06
9A2-VR24.102 Fab (Fab, V domains shown, recombinant Fab) VH: EVQLLESGGGLVQPGGSLRLSCAASGFTFPWYRVHWVRQAPGKGLEWVSSIRSSGGFPFYNSSVKGRFTISRDNSKNTLYLQMNSLRAEDTAVYYCARFYDSFFDIWGQGTMVTVSS VL: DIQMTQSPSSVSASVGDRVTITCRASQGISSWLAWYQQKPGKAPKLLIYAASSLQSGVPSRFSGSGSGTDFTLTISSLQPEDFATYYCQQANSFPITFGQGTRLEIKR	M⁻¹ s⁻¹	2.95e+06

Please go through the list and note kon for each binder.
1. 9A2-VR24.29 Fab (Fab, V domains shown, recombinant Fab; also called recombinant Fab fragment of 9A2-VR24.29) VH: EVQLLESGGGLVQPGGSLRLSCAASGFTFPWYRVHWVRQAPGKGLEWVSSIRSSGGFPYYNYKVKGRFTISRDNSKNTLYLQMNSLRAEDTAVYYCARFYDSFFDIWGQGTMVTVSS VL: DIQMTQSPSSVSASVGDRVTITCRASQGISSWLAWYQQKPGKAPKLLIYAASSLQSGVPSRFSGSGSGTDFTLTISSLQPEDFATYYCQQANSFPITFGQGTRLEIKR
2. 9A2-VR39.02 Fab (Fab, V domains shown, recombinant Fab) VH: EVQLLESGGGLVQPGGSLRLSCAASGFTFYWYHMIWVRQAPGKGLEWVSSINGRGRVTYYADSVKGRFTISRDNSKNTLYLQMNSLRAEDTAVYYCARFYDSFFDIWGQGTMVTVSS VL: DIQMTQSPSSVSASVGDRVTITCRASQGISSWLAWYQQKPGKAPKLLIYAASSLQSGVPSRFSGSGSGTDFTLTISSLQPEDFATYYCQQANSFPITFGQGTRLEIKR
3. 9A2-VR24.122 Fab (Fab, V domains shown, recombinant Fab) VH: EVQLLESGGGLVQPGGSLRLSCAASGFTFPWYRVHWVRQAPGKGLEWVSSIRSSGGFTYYNSEVKGRFTISRDNSKNTLYLQMNSLRAEDTAVYYCARFYDSFFDIWGQGTMVTVSS VL: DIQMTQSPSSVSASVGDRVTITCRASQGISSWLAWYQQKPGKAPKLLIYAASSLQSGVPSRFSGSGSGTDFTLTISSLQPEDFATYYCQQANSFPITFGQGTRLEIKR
4. 9A2-VR39.109 Fab (Fab, V domains shown, recombinant Fab) VH: EVQLLESGGGLVQPGGSLRLSCAASGFTFMWYHHIWVRQAPGKGLEWVSSINGRGRVTYYADSVKGRFTISRDNSKNTLYLQMNSLRAEDTAVYYCARFYDSFFDIWGQGTMVTVSS VL: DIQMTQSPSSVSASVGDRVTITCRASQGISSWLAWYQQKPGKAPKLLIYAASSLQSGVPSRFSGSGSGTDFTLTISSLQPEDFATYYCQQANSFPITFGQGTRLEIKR
5. 9A2-VR39.24 Fab (Fab, V domains shown, recombinant Fab) VH: EVQLLESGGGLVQPGGSLRLSCAASGFTFHHFHVIWVRQAPGKGLEWVSSINGRGRVTYYADSVKGRFTISRDNSKNTLYLQMNSLRAEDTAVYYCARFYDSFFDIWGQGTMVTVSS VL: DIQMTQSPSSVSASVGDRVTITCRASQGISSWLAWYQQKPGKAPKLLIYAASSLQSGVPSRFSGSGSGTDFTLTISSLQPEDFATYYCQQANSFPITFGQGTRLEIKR
6. 9A2-VR24.57 Fab (Fab, V domains shown, recombinant Fab) VH: EVQLLESGGGLVQPGGSLRLSCAASGFTFPWYRVHWVRQAPGKGLEWVSSIRSSGGFTYYNPKVKHRFTISRDNSKNTLYLQMNSLRAEDTAVYYCARFYDSFFDIWGQGTMVTVSS VL: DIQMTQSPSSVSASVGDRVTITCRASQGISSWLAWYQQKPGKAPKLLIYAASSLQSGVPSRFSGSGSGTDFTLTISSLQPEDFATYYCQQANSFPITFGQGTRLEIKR

Result string:
4e+06
3.89e+06
2.54e+06
3.4e+06
2.96e+06
4e+06

Hello, the source for this data is patent US20190062438A1, in case you need it.
